Experiment: in vivo
Details: male, C57BL/6J, mouse, po, 10 mg/kg
MEASURED_PROPERTY: concentration at 6 h

Inquiry: What measured concentration at 6 h goes with O=C(NC1CCCC1)C(=O)[C@H](C[C@@H]1CCNC1=O)NC(=O)[C@@H]1[C@H]2CCC[C@H]2CN1C(=O)[C@@H](NC(=O)C(F)(F)F)C1CCCCC1 ?
Reply text: 291 nM

----------
Experiment: in vivo
Details: male, C57BL/6J, mouse, po, 10 mg/kg
Task for the reader: assign each of the following compounds its reported bioavailability.
Write the value in % as a bare number.

Inquiry: What measured bioavailability goes with O=C(NC1CCCC1)C(=O)[C@H](C[C@@H]1CCNC1=O)NC(=O)[C@@H]1[C@H]2CCC[C@H]2CN1C(=O)[C@@H](NC(=O)C(F)(F)F)C1CCCCC1 [Compound 1] ?
Reply text: 22

Inquiry: What measured bioavailability goes with CC(C)(C)[C@H](NC(=O)C(F)(F)F)C(=O)N1C[C@H]2[C@@H]([C@H]1C(=O)N[C@H](C#N)CC1CCNC1=O)C2(C)C (stereo partly drawn) [PF-07321332, reference compound] ?
Reply text: 32.7

Inquiry: What measured bioavailability goes with CC(C)(C)NC(=O)C(=O)[C@H](C[C@@H]1CCNC1=O)NC(=O)[C@@H]1[C@H]2CCC[C@H]2CN1C(=O)[C@@H](NC(=O)C(F)(F)F)C1CCCCC1 [Compound 3] ?
Reply text: 32

----------
Test: in vivo
Settings: male, C57BL/6J, mouse, iv, 3 mg/kg
MEASURED_PROPERTY: concentration at 24 h (nM)
Write the value in nM as a bare number.

Inquiry: What measured concentration at 24 h goes with O=C(NC1CCCC1)C(=O)[C@H](C[C@@H]1CCNC1=O)NC(=O)[C@@H]1[C@H]2CCC[C@H]2CN1C(=O)[C@@H](NC(=O)C(F)(F)F)C1CCCCC1 ?
Reply text: 6.59

----------
Details: male, C57BL/6J, mouse, in vivo, po, 10 mg/kg
MEASURED_PROPERTY: Cmax (µM)
Write the value in µM as a bare number.

Inquiry: What measured Cmax goes with CC(C)(C)NC(=O)C(=O)[C@H](C[C@@H]1CCNC1=O)NC(=O)[C@@H]1[C@H]2CCC[C@H]2CN1C(=O)[C@@H](NC(=O)C(F)(F)F)C1CCCCC1 ?
Reply text: 4.81
